# Test system: Aorta
# assay: Vasodilative activity against […] Sprague-Dawley rat thoracic aorta assessed as reduction in phenylepinephrine-induced contraction
# Assay type: functional, tissue-based
Recorded Emax determines the label; the label ranges are low: < 30%; mid: ≥ 30% and < 40%; high: ≥ 40%

{"compound": "COc1ccc2[nH]c3c(c2c1)CCn1c-3c(O)c2ccccc2c1=O", "discreteLabel": "low"}
{"compound": "CC(=O)c1ccc2[nH]c3c(c2c1)CCn1c-3nc2ccccc2c1=O", "discreteLabel": "high"}
{"compound": "COc1ccc2[nH]c3c(c2c1)CCN1C(=O)c2ccccc2OC31C (stereo not drawn)", "discreteLabel": "mid"}
{"compound": "COc1ccc2[nH]c3c(c2c1)CCn1c-3nc2cc(Cl)ccc2c1=O", "discreteLabel": "mid"}
{"compound": "Cc1ccc2[nH]c3c(c2c1)CCn1c-3nc2ccccc2c1=O", "discreteLabel": "high"}
{"compound": "O=c1c2ccc(Cl)cc2nc2n1CCc1c-2[nH]c2ccccc12", "discreteLabel": "mid"}
{"compound": "COc1ccc2[nH]c3c(c2c1)CCn1c-3nc2cccc(Cl)c2c1=O", "discreteLabel": "mid"}
{"compound": "COC(=O)C(Cc1c[nH]c2ccccc12)n1cnc2ccccc2c1=O (stereo not drawn)", "discreteLabel": "low"}
{"compound": "O=c1c2ccccc2c(O)c2n1CCc1c-2[nH]c2ccccc12", "discreteLabel": "low"}
{"compound": "COc1ccc2[nH]c3c(c2c1)CCn1c-3nc2ccc(Cl)cc2c1=O", "discreteLabel": "high"}

----------
# Test system: Aorta
# assay: Vasodilative activity against […] Sprague-Dawley rat thoracic aorta assessed as reduction in phenylepinephrine-induced contraction
# Format: functional, tissue-based
This section presents molecules with their documented Emax values.
measurementName: Emax (%)

{"molecule": "Cc1cccc2c3c([nH]c12)-c1nc2ccccc2c(=O)n1CC3", "reading": 47}
{"molecule": "O=c1c2ccccc2nc2n1CCc1c-2[nH]c2c(Cl)cc(Cl)c(Cl)c12", "reading": 51}
{"molecule": "COc1ccc2[nH]c3c(c2c1)CCN1C(=O)c2ccccc2OC31 (stereo unspecified)", "reading": 13}
{"molecule": "c1ccc2c(c1)CN1CCc3c([nH]c4ccccc34)C1N2 (stereo unspecified)", "reading": 63.6}
{"molecule": "O=c1c2ccccc2nc2n1CCc1c-2[nH]c2c(Cl)cccc12", "reading": 50.1}
{"molecule": "COc1ccc2[nH]c3c(c2c1)CCn1c-3nc2ccccc2c1=O", "reading": 42.6}
{"molecule": "O=C1c2ccccc2NC2(C(F)(F)F)c3[nH]c4ccccc4c3CCN12 (stereo unspecified)", "reading": 42.5}
{"molecule": "CC12Oc3ccccc3C(=O)N1CCc1c2[nH]c2ccccc12 (stereo unspecified)", "reading": 29.9}
{"molecule": "O=c1c2ccccc2nc2n1CCc1c-2[nH]c2ccccc12", "reading": 79.3}
{"molecule": "O=C1c2ccccc2OC2c3[nH]c4ccccc4c3CCN12 (stereo unspecified)", "reading": 39.8}
{"molecule": "c1ccc2c(c1)CN1CCc3c([nH]c4ccccc34)C1=N2", "reading": 68.9}

----------
# System: Aorta
# assay: Vasodilative activity against […] Sprague-Dawley rat thoracic aorta assessed as reduction in phenylepinephrine-induced contraction
# Type: functional, tissue-based

{"smi": "O=c1c2cc(Cl)ccc2nc2n1CCc1c-2[nH]c2ccccc12", "quantityUnit": "%", "Emax": 40.6}
{"smi": "COc1ccc2[nH]c3c(c2c1)CCn1c-3nc2ccc(Br)cc2c1=O", "quantityUnit": "%", "Emax": 40.3}
{"smi": "O=c1c2c(Cl)cccc2nc2n1CCc1c-2[nH]c2ccccc12", "quantityUnit": "%", "Emax": 39.6}
